meta.source: PubChem BioAssay (NCI)

Measured TGI values are reported for all entries that follow.
Test system: RPMI-8226 leukemia
test: NCI tumour cell line growth inhibition, 48 h

>  <compound>
O=[N+]([O-])c1cccnc1-n1cnc2ccccc21

>  <assayed.system>
RPMI-8226 leukemia

>  <TGI>
> 100 µM

$$$$

compound O=C(Cc1ccccc1)NN1C(=O)/C(=C\c2ccc(O)cc2)SC1=Nc1ccccc1 , TGI observed: > 100 µM

compound CC1(C2CCC3(C)OC3C2)CO1 (configuration not stated) , TGI observed: > 100 µM

compound CSc1ccc(C(=O)C(=O)c2ccc(SC)s2)s1 , TGI observed: > 10 µM

compound CCCCCCCCCCCCOP(N)(=O)OCCCCCCCCCCCC , TGI observed: > 100 µM

compound Cc1nc(N)nc2ccccc12 , TGI observed: > 100 µM

compound CC(=O)OC1CC2C(=O)C(=O)C1(C)C2(C)C (configuration not stated) , TGI observed: > 100 µM

compound CCN(CC)c1ccc2cc(-c3nc4ccccc4c(=O)[nH]3)c(=N)oc2c1 , TGI observed: > 100 µM

compound NCCOCC(N)C(=O)O (configuration not stated) , TGI observed: > 100 µM

compound COC(=O)CCCC(=O)NC1=C(NCc2ccccc2)C(=O)c2ccccc2C1=O , TGI observed: > 100 µM

compound Cc1nc(-n2nc(-c3ccccc3)cc2-c2ccccc2)sc1C(/C=C/c1ccc([N+](=O)[O-])cc1)=N/NC(=O)c1ccncc1 , TGI observed: > 100 µM

compound Cc1cc(Cl)ccc1Nc1nc(C(F)(F)F)ccc1C(=O)N1CCN(c2cccc(Cl)c2)CC1 , TGI observed: > 100 µM

compound CC1CC/C(=C\c2ccc(Cl)cc2)c2nc(N)c(C#N)c(-c3ccc(Cl)cc3)c21 (configuration not stated) , TGI observed: > 100 µM

compound Cc1c(C(=O)CSc2nc3ccccc3[nH]2)c(=O)n(-c2ccccc2)n1C , TGI observed: > 100 µM

compound O=C(Nc1ccccc1C(=O)N/N=C(\c1ccccc1)c1ccccn1)c1ccc(F)cc1 , TGI observed: > 100 µM

compound Nc1ccc(S(=O)(=O)Nc2cnc3c(Cl)cccc3n2)cc1 , TGI observed: > 705 µM

compound Cc1cc2c(c(=O)n1C)SCC2 , TGI observed: > 100 µM

----------
System: HL-60(TB) leukemia
test: NCI tumour cell line growth inhibition, 48 h
result.type: TGI

Reference set, count: 5
>  <molecule>
CC1COCC(C)N1C1=C(Cl)C(=O)c2ccccc2C1=O (centres undefined)

>  <assayed.system>
HL-60(TB) leukemia

>  <TGI>
5.03 µM

$$$$
>  <molecule>
NCCOCC(N)C(=O)O (centres undefined)

>  <assayed.system>
HL-60(TB) leukemia

>  <TGI>
> 100 µM

$$$$
>  <molecule>
c1ccc(-c2nnn(CCN3CCCCC3)n2)cc1

>  <assayed.system>
HL-60(TB) leukemia

>  <TGI>
> 100 µM

$$$$
>  <molecule>
N#CC1C=Cc2ccccc2N1C(=O)Oc1ccccc1 (centres undefined)

>  <assayed.system>
HL-60(TB) leukemia

>  <TGI>
48.6 µM

$$$$
>  <molecule>
CC1CC2(C)CC(=O)C1C1C(=O)N(CCN3CCCCC3)C(=O)C12 (centres undefined)

>  <assayed.system>
HL-60(TB) leukemia

>  <TGI>
> 100 µM

$$$$

molecule CC(=O)O[C@H]1CC[C@@]2(C)[C@H](CC[C@@H]3[C@@H]2CC[C@]2(C)[C@@H](c4ccc(=O)oc4)C[C@H]4O[C@]342)C1 , TGI observed: 0.592 µM

----------
Measured TGI values are reported for all entries that follow.
System: RXF 393 renal
test: NCI tumour cell line growth inhibition, 48 h

Reference set, count: 5
>  <compound>
CSc1ccc(C(=O)C(=O)c2ccc(SC)s2)s1

>  <obs.value>
> 10 µM

$$$$
>  <compound>
CC(C)(C)OC(=O)n1cc(C2CN(O)C(=O)C23CCC(=O)N3Cc2ccccc2)c2ccccc21 (stereo unspecified)

>  <obs.value>
> 100 µM

$$$$
>  <compound>
CN(C)C(=S)Oc1ccc2ccc(=O)oc2c1

>  <obs.value>
> 100 µM

$$$$
>  <compound>
Cc1ccc(-c2n[nH]c(=O)n2/N=C\c2ccccc2)cc1

>  <obs.value>
> 81.5 µM

$$$$
>  <compound>
CC(C)OC1OC(CO)C(O)CC1n1cc(F)c(=O)[nH]c1=O (stereo unspecified)

>  <obs.value>
> 100 µM

$$$$

Now for a further compound.
compound COc1cnc2cc(C(=O)O)c3ccccc3c2c1 , TGI observed: > 100 µM

----------
System: NCI-H226 lung
test: NCI tumour cell line growth inhibition, 48 h
result.type: TGI

Reference set, count: 5
>  <molecule>
COc1ccccc1NC(=O)C(CC(C(=O)Nc1ccccc1OC)/C(C)=N/Nc1ccc([N+](=O)[O-])cc1[N+](=O)[O-])/C(C)=N/Nc1ccc([N+](=O)[O-])cc1[N+](=O)[O-] (configuration not stated)

>  <assayed.system>
NCI-H226 lung

>  <TGI>
> 100 µM

$$$$
>  <molecule>
CSc1ccc(C(=O)C(=O)c2ccc(SC)s2)s1

>  <assayed.system>
NCI-H226 lung

>  <TGI>
> 10 µM

$$$$
>  <molecule>
COc1ccccc1CNCCCCCCCCCCCCN1C(=O)c2ccc3c4c(ccc(c24)C1=O)C(=O)N(CCCCCCCCCCCCNCc1ccccc1OC)C3=O

>  <assayed.system>
NCI-H226 lung

>  <TGI>
> 50 µM

$$$$
>  <molecule>
O=C(c1ccc(Cl)cc1)C1OC12C(=O)Nc1ccccc12 (configuration not stated)

>  <assayed.system>
NCI-H226 lung

>  <TGI>
40.7 µM

$$$$
>  <molecule>
COC(=O)/C(=N/NC(N)=O)C(C(=O)OC)C(=O)C(=O)Nc1ccc(Cl)cc1 (configuration not stated)

>  <assayed.system>
NCI-H226 lung

>  <TGI>
> 100 µM

$$$$

molecule CC(=O)N(Cc1ccccc1)c1ccccc1I(=O)=O , TGI observed: > 100 µM

molecule Cc1csc(NC(=NCCN2CCOCC2)Nc2nc(C)cs2)n1 , TGI observed: > 100 µM

molecule CC1CCC2N(C1)CC1C3(O)CC45OC6(O)C(O)CCC4(C)C6CCC5C3(O)CC(O)C1(O)C2(C)O (configuration not stated) , TGI observed: > 100 µM

----------
Tested on: TK-10 renal
test: NCI tumour cell line growth inhibition, 48 h
result.type: TGI

Reference set, count: 3
>  <compound>
CCOc1ccc(C(CN2CCOCC2)C(C)=O)cc1OC (configuration not stated)

>  <TGI>
31 µM

$$$$
>  <compound>
Nc1ccc(S(=O)(=O)Nc2cnc3c(Cl)cccc3n2)cc1

>  <TGI>
589 µM

$$$$
>  <compound>
CS(=O)(=O)NC12CCC(c3ccccc31)c1ccccc12

>  <TGI>
> 100 µM

$$$$

compound O=C1CN(/N=C/c2ccc(-c3ccc(F)cc3)o2)C(=O)N1 , TGI observed: > 100 µM

compound COc1cccc(NC(=O)C(=O)C(C(C)=O)c2nc3ccc(Cl)cc3[nH]c2=O)c1 (configuration not stated) , TGI observed: > 100 µM

compound CC(C)OC1OC(CO)C(O)CC1n1cc(F)c(=O)[nH]c1=O (configuration not stated) , TGI observed: > 100 µM

compound COC(=O)c1c(C)nc(C)c(NO)c1-c1ccccc1C(F)(F)F , TGI observed: 37.4 µM

compound CC1CC2(C)CC(=O)C1C1C(=O)N(CCN3CCCCC3)C(=O)C12 (configuration not stated) , TGI observed: > 100 µM

compound COc1ccc(CCN2CCc3c(C)c(C#N)c4nc5ccccc5n4c32)cc1OC , TGI observed: > 100 µM

----------
For UACC-62 melanoma, measured GI50 is reported for the entries below.

Reference set, count: 3
>  <compound>
CCOP(=O)(OCC)C(C)(CC)NC(=O)C(C(F)(F)F)C(F)(F)F (configuration not stated)

>  <result.type>
GI50

>  <obs.value>
> 100 µM

$$$$
>  <compound>
Nc1ccc(S(=O)(=O)Nc2cnc3c(Cl)cccc3n2)cc1

>  <result.type>
GI50

>  <obs.value>
56.3 µM

$$$$
>  <compound>
O=C(Nc1cccc(-n2cc(-c3ccncc3)c(-c3ccc(O)c(Cl)c3)n2)c1)c1cccc(C(F)(F)F)c1

>  <result.type>
GI50

>  <obs.value>
6.52 µM

$$$$

Reported GI50 (UACC-62 melanoma) for entry O=C(Nc1ccccc1C(=O)N/N=C(\c1ccccc1)c1ccccn1)c1ccc(F)cc1 is 0.308 µM

Reported GI50 (UACC-62 melanoma) for entry CCC(CC(C)C)Nc1ccc(NC(CC)CC(C)C)cc1 (configuration not stated) is 10.6 µM

Reported GI50 (UACC-62 melanoma) for entry CCOc1cc(-c2ccc[nH]2)[nH]c1/C=C1\N=C(C)C(C(=O)OC)=C1C is 0.024 µM

Reported GI50 (UACC-62 melanoma) for entry CC(=O)Oc1ccc(/C=N/NC(N)=S)nc1 is 4.36 µM
